Assay: Primary qHTS for delayed death inhibitors of the malarial parasite plastid, 96 hour incubation
Conditions: P. falciparum luciferase reporter growth; series mostly up to 28.7 µM
Source text: The goal of this screen is to discover new antimalarial compounds that act by inhibiting the development of the apicoplast in the malarial parasite Plasmodium falciparum. […] We have developed a cell-based assay that measures parasite growth based on the expression of an integrated copy of a firefly luciferase reporter. […] Growth inhibition is detected by a decrease in luciferase activity. […]
Hit rate of the full screen: of about 320,000 compounds, about 22,000 (6.9%) were called active. Inconclusive results (about 27%) are left out. Calls come from the whole dose curve; as a rule, active = well fitted inhibition curve with a large enough effect; inconclusive = small, poorly fitted or top-dose-only effect, or another doubt; inactive = no such curve, though single readings can be large or run the other way. The entries come from a sample that favours actives as a whole.
Could you please pick one outcome from this set? 1 for active, -1 for inactive

Worked cases, answers included:
// return assay outcome for CC(CC(=O)Nc1ccc(F)cc1F)S(=O)(=O)c1ccc2c(c1)NC(=O)CO2 (stereo unspecified)
1

// param item: NC(=O)Nc1cccc(C(F)(F)F)c1 ; yields the recorded call
-1

// param item: Cc1cc(C)c(C#N)c(SCC(=O)N(CC(C)C)C2CCS(=O)(=O)C2)n1 (stereo unspecified) ; yields the recorded call
-1

Which outcome was entered for the molecule O=C(O)CC1(CC(=O)Nc2cccc(C(F)(F)F)c2)CCCC1 in this test?
-1

What is the recorded call for this molecule in the test? Cc1ccc(NS(=O)(=O)c2ccc3c(c2)NC(=O)CO3)cc1
-1

Further cases:
For this molecule, state the assay outcome: COc1ccc2c(c1)c(C(=O)N/N=C/c1cccs1)c(C)n2C
-1

Which outcome was assigned to CS(=O)(=O)c1ccc(-c2nnn(CC(=O)Nc3ccc4c(c3)OCCO4)n2)cc1 in this test?
-1
